Source of measurements: ChEMBL document CHEMBL1143012

- Tested on: Rattus norvegicus
- PROCEDURE_DETAILS: Stimulation of cumulative food intake in Sprague-Dawley rat at 160 ug/kg, sc at 6 hrs relative to 80 ug/kg hexarelin
- Type: functional
Attribute: Activity
MEASUREMENT_LABEL: Activity (%)

[[record]]
chemical_string = "COc1ccc(Cn2c(Cc3ccccc3)nnc2[C@@H](Cc2c[nH]c3ccccc23)NC(=O)C(C)(C)N)cc1"
measurement_label = "Activity"
unit_text = "%"
readout_value = -31

[[record]]
chemical_string = "COc1ccc(Cn2c(CCc3c[nH]c4ccccc34)nnc2[C@@H](Cc2c[nH]c3ccccc23)NC(=O)C(C)(C)N)cc1"
measurement_label = "Activity"
unit_text = "%"
readout_value = -31

[[record]]
chemical_string = "CC(C)(N)C(=O)N[C@H](Cc1c[nH]c2ccccc12)c1nnc(CCc2c[nH]c3ccccc23)n1CCc1c[nH]c2ccccc12"
measurement_label = "Activity"
unit_text = "%"
readout_value = -25

[[record]]
chemical_string = "Cc1ccc(Cn2c(CCc3c[nH]c4ccccc34)nnc2[C@@H](Cc2c[nH]c3ccccc23)NC(=O)C(C)(C)N)cc1"
measurement_label = "Activity"
unit_text = "%"
readout_value = -49


---

- SYSTEM_NAME: Growth hormone secretagogue receptor type 1 (Homo sapiens, UniProt Q92847)
- Sequence (Q92847 whole entry): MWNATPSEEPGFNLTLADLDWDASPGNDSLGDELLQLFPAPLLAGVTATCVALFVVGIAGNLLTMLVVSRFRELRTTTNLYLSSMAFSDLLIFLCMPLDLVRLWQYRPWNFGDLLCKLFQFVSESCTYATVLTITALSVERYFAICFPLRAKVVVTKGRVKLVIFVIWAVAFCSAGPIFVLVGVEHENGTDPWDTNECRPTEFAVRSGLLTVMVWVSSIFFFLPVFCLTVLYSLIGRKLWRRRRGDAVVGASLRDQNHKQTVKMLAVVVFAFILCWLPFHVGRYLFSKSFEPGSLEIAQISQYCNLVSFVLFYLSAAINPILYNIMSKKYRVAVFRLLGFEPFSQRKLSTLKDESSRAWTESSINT
- PROCEDURE_DETAILS: Activity at human GHS1a receptor expressed in CHO cells assessed as intracellular calcium mobilization relative to 0.1 uM ghrelin
- Format: functional, cell-based
MEASUREMENT_LABEL: Activity (%)

[[record]]
chemical_string = "COc1ccc(Cn2c(CCc3c[nH]c4ccccc34)nnc2[C@@H](Cc2c[nH]c3ccccc23)NC(=O)C(C)(C)N)c(OC)c1"
measurement_label = "Activity"
readout_value = 0

[[record]]
chemical_string = "CC(C)(N)C(=O)N[C@H](Cc1c[nH]c2ccccc12)c1nnc(CCCc2c[nH]c3ccccc23)n1CCc1c[nH]c2ccccc12"
measurement_label = "Activity"
readout_value = 85

[[record]]
chemical_string = "Cc1ccc(Cn2c(CCc3ccccc3)nnc2[C@@H](Cc2c[nH]c3ccccc23)NC(=O)C(C)(C)N)cc1"
measurement_label = "Activity"
readout_value = 19

[[record]]
chemical_string = "COc1ccc(Cn2c(CCc3ccccc3)nnc2[C@@H](Cc2c[nH]c3ccccc23)NC(=O)C(C)(C)N)c(OC)c1"
measurement_label = "Activity"
readout_value = 0

[[record]]
chemical_string = "COc1cccc(Cn2c(CCc3ccccc3)nnc2[C@@H](Cc2c[nH]c3ccccc23)NC(=O)C(C)(C)N)c1"
measurement_label = "Activity"
readout_value = 82

[[record]]
chemical_string = "CC(C)(N)C(=O)N[C@H](Cc1c[nH]c2ccccc12)c1nnc(CCc2c[nH]c3ccccc23)n1CCc1ccccc1"
measurement_label = "Activity"
readout_value = 25

[[record]]
chemical_string = "COc1cccc(Cn2c(CCc3c[nH]c4ccccc34)nnc2[C@@H](Cc2c[nH]c3ccccc23)NC(=O)C(C)(C)N)c1"
measurement_label = "Activity"
readout_value = 63


---

- Test system: Rattus norvegicus
- PROCEDURE_DETAILS: Stimulation of cumulative food intake in Sprague-Dawley rat at 160 ug/kg, sc at 6 hrs relative to 80 ug/kg hexarelin
- Assay type: functional
Attribute: Activity
MEASUREMENT_LABEL: Activity (%)

[[record]]
chemical_string = "COc1cccc(Cn2c(CCc3ccccc3)nnc2[C@@H](Cc2c[nH]c3ccccc23)NC(=O)C(C)(C)N)c1"
system_name = "Rattus norvegicus"
measurement_label = "Activity"
readout_value = -37

[[record]]
chemical_string = "COc1ccc(Cn2c(CCc3ccccc3)nnc2[C@@H](Cc2c[nH]c3ccccc23)NC(=O)C(C)(C)N)cc1"
system_name = "Rattus norvegicus"
measurement_label = "Activity"
readout_value = -10

[[record]]
chemical_string = "COc1ccccc1Cn1c(CCc2ccccc2)nnc1[C@@H](Cc1c[nH]c2ccccc12)NC(=O)C(C)(C)N"
system_name = "Rattus norvegicus"
measurement_label = "Activity"
readout_value = -57

